# ASSAY_SYSTEM: COP9 signalosome complex subunit 5 (Homo sapiens)
# METHOD: CSN5 deneddylase inhibitors on cullin-RING ligase – biochemical, fluorescence polarization, uHTS, primary screen (AID 651999);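 further: 0% = enzyme with substrate and 100% = substrate without enzyme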
# SETUP_CONDITIONS: Purified CSN, SCF-Nedd8-OG deneddylation, at 12.5 µM
Hit rate of the full screen: of about 360,000 compounds, about 1,400 (0.39%) were called active.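 How the source made its calls: active means pattern-corrected inhibition above about 35%, with an unprinted fluorescence ratio check between 0.5 and 1.5 (limit read from the data, passing the limit was not always enough); inactive means the rest.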 The sample holds actives, similar compounds and a random draw of the others, so the mix is not that of the screen.
A correct response names exactly one class from active, inactive

A selection of reference data follows.
| COMPOUND | LABEL |
| --- | --- |
| COc1ccc(NC(=O)C2CCC(CNc3c(N4CCCCC4)c(=O)c3=O)CC2)c(OC)c1 (configuration not stated) | inactive |
| O=C(NCCc1ccccc1)C(=O)NCC1OCCN1S(=O)(=O)c1cccs1 (configuration not stated) | inactive |

Prompt: Could you kindly confirm the outcome this assay logged for CCOC(=O)[C@]12CCCC=C1N(CCC1=CCCCC1)C(=O)[C@H](CC(=O)N1CCN(C(=O)c3ccco3)CC1)C2 ?
Completion: inactive

Prompt: Could you kindly confirm the outcome this assay logged for O=C(C(=O)N1CCc2ccccc2C1)c1c[nH]c2ccccc12 ?
Completion: inactive

Prompt: Could you kindly confirm the outcome this assay logged for Cc1ccc(-c2nnc(C)c(N3CC(C)OC(C)C3)n2)cc1 (configuration not stated) ?
Completion: inactive

Prompt: Could you kindly confirm the outcome this assay logged for Cc1cccc(C)c1NC(=O)C1CCCN1C(=O)OC(C)(C)C (configuration not stated) ?
Completion: inactive

Prompt: Could you kindly confirm the outcome this assay logged for O=C(Oc1c(-c2ccco2)oc2ccccc2c1=O)c1cccnc1 ?
Completion: inactive

Prompt: Could you kindly confirm the outcome this assay logged for CCN(CC)C(=O)CSc1nnc(-c2ccc(S(=O)(=O)NCc3ccccc3Cl)cc2)o1 ?
Completion: inactive

Prompt: Could you kindly confirm the outcome this assay logged for CN1CCNC(=O)C1CC(=O)N1CC=C(c2ccc(F)cc2)CC1 (configuration not stated) ?
Completion: inactive

Prompt: Could you kindly confirm the outcome this assay logged for CCc1ccc(CNC(=O)CCc2nc(-c3cccs3)no2)cc1 ?
Completion: active

Prompt: Could you kindly confirm the outcome this assay logged for Cc1ccc(C(=O)O)cc1-c1ccc(/C=C2\SC(=O)N(CC(=O)Nc3ccc4c(c3)OCO4)C2=O)o1 ?
Completion: active

Prompt: Could you kindly confirm the outcome this assay logged for CCc1c(O)nc(SCC(=O)Nc2ccccc2)n(C(C)CC)c1=O (configuration not stated) ?
Completion: inactive

----------
# ASSAY_SYSTEM: COP9 signalosome complex subunit 5 (Homo sapiens)
# METHOD: CSN5 deneddylase inhibitors on cullin-RING ligase – biochemical, fluorescence polarization, uHTS, primary screen (AID 651999);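 further: 0% = enzyme with substrate and 100% = substrate without enzyme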
# SETUP_CONDITIONS: Purified CSN, SCF-Nedd8-OG deneddylation, at 12.5 µM, active compounds read high
Hit rate of the full screen: of about 360,000 compounds, about 1,400 (0.39%) were called active. The full list was thinned out, with actives kept by preference.
MEASURE: inhibition (%)
Answers are plain numbers, in %.

Below are worked cases with known answers.
| SMILES_REPRESENTATION | inhibition [%] |
| --- | --- |
| CCC(C)(C)n1nnnc1CN1CCN(c2nc3ccc(C)cc3cc2C#N)CC1 | 1.36 |
| Cn1c2ccccc2c2cc(/C=C(\NC(=O)c3ccccc3)C(=O)NCC(=O)O)ccc21 | 60.8 |
| COc1ccccc1N1CCN(C(=O)C(=O)N/N=C/c2ccccc2F)CC1 | -1.85 |
| COc1cccc(/C=N/NC(=O)c2[nH]nc3c2CCc2ccccc2-3)c1O | 67 |

Prompt: Provide one value: measured inhibition of COc1cc(/C=N\NC(=O)c2nonc2N)c(OC)cc1Br
Completion: 3.66
